Task for the reader: assign each of the following compounds its reported Working solution Accuracy (%).
METHOD_DESCRIPTION: Stability of the working solution (4°C for 1 month)
Assay type: physicochemical
RECORDED_CONDITIONS: 100 ng/mL
The figure you give is taken to be in %; do not add the unit.

Form field: reported Working solution Accuracy (%) of O=C(O)[C@H]1O[C@@H](Oc2cc3oc(-c4ccc(O)cc4)cc(=O)c3c(O)c2O)[C@H](O)[C@@H](O)[C@@H]1O
108.0

Form field: reported Working solution Accuracy (%) of O=C(O)c1ccc(O)c(O)c1
92.6

Form field: reported Working solution Accuracy (%) of COc1cc(/C=C/C(=O)O)cc(OC)c1O
94.2

Form field: reported Working solution Accuracy (%) of O=c1cc(-c2ccc(O)cc2)oc2c([C@@H]3O[C@H](CO)[C@@H](O)[C@H](O)[C@H]3O)c(O)cc(O)c12
89.9
